TARGET_OR_TEST_SYSTEM: UniProt P10613
Sequence (P10613 whole entry): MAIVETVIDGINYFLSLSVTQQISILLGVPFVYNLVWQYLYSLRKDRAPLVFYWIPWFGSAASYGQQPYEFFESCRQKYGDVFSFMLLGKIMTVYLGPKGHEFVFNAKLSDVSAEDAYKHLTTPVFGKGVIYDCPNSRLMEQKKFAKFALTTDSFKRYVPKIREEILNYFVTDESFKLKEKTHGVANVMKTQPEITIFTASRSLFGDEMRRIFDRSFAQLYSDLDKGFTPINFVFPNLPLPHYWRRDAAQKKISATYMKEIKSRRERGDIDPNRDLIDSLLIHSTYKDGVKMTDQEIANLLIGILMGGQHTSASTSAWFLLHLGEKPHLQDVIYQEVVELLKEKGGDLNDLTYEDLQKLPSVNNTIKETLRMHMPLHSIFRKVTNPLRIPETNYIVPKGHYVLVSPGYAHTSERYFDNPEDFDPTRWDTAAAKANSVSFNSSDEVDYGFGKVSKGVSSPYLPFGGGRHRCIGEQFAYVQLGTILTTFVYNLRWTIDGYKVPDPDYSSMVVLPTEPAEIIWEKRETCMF
EXPERIMENTAL_PROTOCOL: UV-visible difference spectroscopy (type II spectral response) with isolated CYP51
pKd: −log10 of the molar value.
READOUT_LABEL: pKd

Name the recorded pKd of the compound listed here: CC(=O)N1CCN(c2ccc(OC[C@H]3CO[C@](Cn4ccnc4)(c4ccc(Cl)cc4Cl)O3)cc2)CC1 (racemic) > 7.30

----------
TARGET_OR_TEST_SYSTEM: human CYP51 (hCYP51) (Homo sapiens)
Sequence (Q16850 whole entry): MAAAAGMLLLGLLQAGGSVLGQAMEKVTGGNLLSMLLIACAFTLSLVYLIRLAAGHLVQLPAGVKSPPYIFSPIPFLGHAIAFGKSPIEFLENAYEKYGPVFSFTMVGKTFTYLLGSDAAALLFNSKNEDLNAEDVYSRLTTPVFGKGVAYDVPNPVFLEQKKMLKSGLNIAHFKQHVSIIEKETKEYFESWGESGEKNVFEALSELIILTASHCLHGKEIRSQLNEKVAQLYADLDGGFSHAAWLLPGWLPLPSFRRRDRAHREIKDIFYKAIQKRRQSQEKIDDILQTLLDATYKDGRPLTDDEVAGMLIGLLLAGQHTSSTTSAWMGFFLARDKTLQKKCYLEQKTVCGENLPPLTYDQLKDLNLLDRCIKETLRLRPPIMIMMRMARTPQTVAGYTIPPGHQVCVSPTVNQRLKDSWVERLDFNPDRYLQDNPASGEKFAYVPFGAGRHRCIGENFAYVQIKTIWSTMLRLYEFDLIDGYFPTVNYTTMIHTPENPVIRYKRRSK
pKd: −log10 of the molar value.
READOUT_LABEL: pKd

Name the recorded pKd of the compound listed here: CC(=O)N1CCN(c2ccc(OC[C@H]3CO[C@](Cn4ccnc4)(c4ccc(Cl)cc4Cl)O3)cc2)CC1 (racemic) [ketoconazole] > 7.30
